Listed here: items and their measured IC50.
Subject Of Test: HCV NS5B RdRp (Hepatitis C virus genotype 1b, UniProt Q9WMX2)
Construct: The protein was expressed with an 18 amino acid C-terminal truncation to enhance the solubility
Sequence (Q9WMX2 2420-2992): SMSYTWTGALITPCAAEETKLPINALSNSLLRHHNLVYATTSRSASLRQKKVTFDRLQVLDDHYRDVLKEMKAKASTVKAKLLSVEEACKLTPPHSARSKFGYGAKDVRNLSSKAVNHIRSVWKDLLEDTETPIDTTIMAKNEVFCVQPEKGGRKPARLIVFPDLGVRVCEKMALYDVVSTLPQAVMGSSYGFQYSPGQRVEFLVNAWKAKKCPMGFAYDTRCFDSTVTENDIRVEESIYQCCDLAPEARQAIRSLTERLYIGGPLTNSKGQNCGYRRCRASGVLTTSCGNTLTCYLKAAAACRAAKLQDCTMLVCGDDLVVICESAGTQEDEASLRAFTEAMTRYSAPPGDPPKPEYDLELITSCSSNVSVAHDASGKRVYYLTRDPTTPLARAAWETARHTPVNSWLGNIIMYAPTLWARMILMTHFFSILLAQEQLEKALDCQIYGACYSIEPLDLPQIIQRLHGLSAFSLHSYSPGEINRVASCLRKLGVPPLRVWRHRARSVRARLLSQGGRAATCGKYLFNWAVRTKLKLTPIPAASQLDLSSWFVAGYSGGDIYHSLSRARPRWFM
Test Name: HCV NS5B RdRp enzyme inhibition assay
Answer in µM, number only, no unit symbol.

Compound Smiles: COc1ccc(-c2ccc(Cl)cc2)c(COc2ccc(-c3nc(/C=C(\C)C(=O)O)cn3C3CCCCC3)cc2)c1
IC50 [µM]: 2.5
//
Compound Smiles: O=C(O)/C=C/c1cc(C2CCCCC2)n(-c2ccc(OCc3ccccc3)cc2)n1
IC50 [µM]: 4.5
//
Compound Smiles: COc1ccc(-c2ccc(Cl)cc2)c(COc2ccc(-c3nc(/C=C/C(=O)O)cn3C3CCCCC3)cc2)c1
IC50 [µM]: 5.3
//
Compound Smiles: COc1ccc(-c2ccc(Cl)cc2)c(COc2ccc(-c3cc(/C=C(\C)C(=O)O)nn3C3CCCCC3)cc2)c1
IC50 [µM]: 0.27
//
Compound Smiles: C/C(=C\c1cc(-c2ccc(OCc3ccccc3)cc2)n(C2CCCCC2)n1)C(=O)O
IC50 [µM]: 10
//
Compound Smiles: O=C(O)/C=C/c1nn(C2CCCCC2)c(-c2ccc(OCc3ccccc3)cc2)c1Br
IC50 [µM]: 3.1
//
Compound Smiles: COc1ccc(-c2ccc(Cl)cc2)c(COc2ccc(-c3cc(/C=C/C(=O)O)nn3C3CCCCC3)cc2)c1
IC50 [µM]: 0.45
//
Compound Smiles: COc1ccc(-c2ccc(Cl)cc2)c(COc2ccc(-c3c(-c4ccccc4)c(/C=C/C(=O)O)nn3C3CCCCC3)cc2)c1
IC50 [µM]: 1.3

In: Give IC50 only, for O=C(O)/C=C/c1cc(-c2ccc(OCc3ccccc3)cc2)n(C2CCCCC2)n1 , using HCV NS5B RdRp (Hepatitis C virus genotype 1b, UniProt Q9WMX2) data.
Out: 15

In: Give IC50 only, for O=C(O)C#Cc1cc(-c2ccc(OCc3ccccc3)cc2)n(C2CCCCC2)n1 , using HCV NS5B RdRp (Hepatitis C virus genotype 1b, UniProt Q9WMX2) data.
Out: 4.9

In: Give IC50 only, for COc1ccc(-c2ccc(Cl)cc2)c(COc2ccc(-c3cc(C#CC(=O)O)nn3C3CCCCC3)cc2)c1 , using HCV NS5B RdRp (Hepatitis C virus genotype 1b, UniProt Q9WMX2) data.
Out: 2.3

In: Give IC50 only, for C/C(=C\c1cn(C2CCCCC2)c(-c2ccc(OCc3ccccc3)cc2)n1)C(=O)O , using HCV NS5B RdRp (Hepatitis C virus genotype 1b, UniProt Q9WMX2) data.
Out: 15

* * *

Subject Of Test: HCV NS5B RdRp (Hepatitis C virus genotype 1b)
Construct: The protein was expressed with an 18 amino acid C-terminal truncation to enhance the solubility
Test Name: HCV NS5B RdRp enzyme inhibition assay
Listed here: items and their measured IC50.

Compound Smiles: O=C(O)CCc1cc(C2CCCCC2)n(-c2ccc(OCc3ccccc3)cc2)n1
Endpoint Result: 10 µM
--
Compound Smiles: CCOC(=O)/C(C)=C/c1cn(C2CCCCC2)c(-c2ccc(OCc3cc(OC)ccc3-c3ccc(Cl)cc3)cc2)n1
Endpoint Result: > 25 µM
--
Compound Smiles: O=C(O)/C=C/c1cn(C2CCCCC2)c(-c2ccc(OCc3ccccc3)cc2)n1
Endpoint Result: 6.6 µM
--
Compound Smiles: O=C(O)CCc1cc(-c2ccc(OCc3ccccc3)cc2)n(C2CCCCC2)n1
Endpoint Result: > 25 µM
--
Compound Smiles: CC(C)(C)OC(=O)/C=C/c1cn(C2CCCCC2)c(-c2ccc(OCc3ccccc3)cc2)n1
Endpoint Result: > 25 µM

In: Tell me measured IC50 for COC(=O)/C=C/c1cc(C2CCCCC2)n(-c2ccc(OCc3cc(OC)ccc3-c3ccc(Cl)cc3)cc2)n1 please.
Out: > 25 µM

In: Tell me measured IC50 for COC(=O)/C=C/c1cc(-c2ccc(OCc3cc(OC)ccc3-c3ccc(Cl)cc3)cc2)n(C2CCCCC2)n1 please.
Out: > 25 µM

In: Tell me measured IC50 for COC(=O)/C=C/c1nn(C2CCCCC2)c(-c2ccc(OCc3ccccc3)cc2)c1-c1ccccc1 please.
Out: > 25 µM

* * *

Subject Of Test: HCV NS5B RdRp (Hepatitis C virus genotype 1b)
Construct: The protein was expressed with an 18 amino acid C-terminal truncation to enhance the solubility
Test Name: HCV NS5B RdRp enzyme inhibition assay
pIC50: −log10 of the molar value.
Listed here: items and their measured pIC50.

Check out these entries, answers already filled in.
Molecule: CCOC(=O)/C(C)=C/c1cc(-c2ccc(OCc3ccccc3)cc2)n(C2CCCCC2)n1 [Example 6]
Readout Type: pIC50
Endpoint Result: < 4.60

Molecule: CNC(=O)c1ccc(-c2ccc(Cl)cc2)c(COc2ccc(-c3nc(/C=C(\C)C(=O)O)cn3C3CCCCC3)cc2)c1 [Example 54]
Readout Type: pIC50
Endpoint Result: 5.80

Molecule: CCOC(=O)/C(C)=C/c1cn(C2CCCCC2)c(-c2ccc(OCc3ccccc3)cc2)n1 [Example 49]
Readout Type: pIC50
Endpoint Result: < 4.60

Lab note: next molecule to report on.
In: Tell me measured pIC50 for CCOC(=O)/C(C)=C/c1cc(C2CCCCC2)n(-c2ccc(OCc3cc(C(=O)NC)ccc3-c3ccc(Cl)cc3)cc2)n1 [Example 38] please.
Out: < 4.60

* * *

Subject Of Test: HCV NS5B RdRp (Hepatitis C virus genotype 1b, UniProt Q9WMX2)
Construct: The protein was expressed with an 18 amino acid C-terminal truncation to enhance the solubility
Test Name: HCV NS5B RdRp enzyme inhibition assay
pIC50: −log10 of the molar value.
Readout Type: pIC50

In: Tell me measured pIC50 for COC(=O)CCc1cc(C2CCCCC2)n(-c2ccc(OCc3cc(OC)ccc3-c3ccc(Cl)cc3)cc2)n1 [Example 42] please.
Out: < 4.60

* * *

Subject Of Test: HCV NS5B RdRp (Hepatitis C virus genotype 1b, UniProt Q9WMX2)
Construct: The protein was expressed with an 18 amino acid C-terminal truncation to enhance the solubility
Test Name: HCV NS5B RdRp enzyme inhibition assay
Excerpt: HCV NS5B RdRp cloning, expression, and purification. The cDNA encoding the NS5B protein of HCV, genotype 1b, was cloned into the pET21a expression vector. The protein was expressed with an 18 amino acid C-terminal truncation to enhance the solubility. The E. coli competent cell line BL21(DE3) was used for expression of the protein. […] HCV NS5B RdRp enzyme assay. […] Plates were read on a Packard Top Count NXT. […]
Readout Type: pIC50
Quick note: pIC50 means taking -log10 of the concentration in moles per liter.

Check out these entries, answers already filled in.
Compound Smiles: COc1ccc(-c2ccc(Cl)cc2)c(COc2ccc(-n3nc(/C=C/C(=O)O)cc3C3CCCCC3)cc2)c1
Endpoint Result: 5.62

Compound Smiles: COc1ccc(-c2ccc(Cl)cc2)c(COc2ccc(-n3nc(CCC(=O)O)cc3C3CCCCC3)cc2)c1
Endpoint Result: 6.51

Lab note: next compound to report on.
In: Tell me measured pIC50 for CNC(=O)c1ccc(-c2ccc(Cl)cc2)c(COc2ccc(-c3cc(/C=C(\C)C(=O)O)nn3C3CCCCC3)cc2)c1 please.
Out: 6.42

* * *

Listed here: items and their measured pIC50.
Subject Of Test: HCV NS5B RdRp (Hepatitis C virus genotype 1b)
Construct: The protein was expressed with an 18 amino acid C-terminal truncation to enhance the solubility
Test Name: HCV NS5B RdRp enzyme inhibition assay
pIC50: −log10 of the molar value.

In: Tell me measured pIC50 for CCOC(=O)C#Cc1cc(-c2ccc(OCc3cc(OC)ccc3-c3ccc(Cl)cc3)cc2)n(C2CCCCC2)n1 please.
Out: < 4.60

In: Tell me measured pIC50 for COc1ccc(-c2ccc(Cl)cc2)c(COc2ccc(-c3cc(CCC(=O)O)nn3C3CCCCC3)cc2)c1 please.
Out: 5.74

In: Tell me measured pIC50 for CNC(=O)c1ccc(-c2ccc(Cl)cc2)c(COc2ccc(-c3nc(/C=C(\C)C(=O)OC(C)(C)C)cn3C3CCCCC3)cc2)c1 please.
Out: < 4.60

Data origin: patent US7112601B2
